Reference for the values: PubChem BioAssay AID485341

biological target: Beta-lactamase (Escherichia coli (strain K12)); assay: qHTS Inhibitors of AmpC Beta-Lactamase (assay without detergent); details: AmpC nitrocefin hydrolysis, absorbance 480 nm, 0.0001% Triton; series mostly up to 57.1 µM; also: nearly all actives have a fitted effect of over 20% in size; also: potency is read from the fitted curve at half-maximal effect
Screen size: about 330,000 compounds; about 1,700 (0.52%) were called active. The sample holds actives, similar compounds and a random draw of the others, so the mix is not that of the screen.
OUTCOME MEASURE: Potency

COMPOUND: C=CS(=O)c1sc(Cl)c(N2CCOCC2)c1[N+](=O)[O-] (stereo unspecified)
RECORDED VALUE: inactive
--
COMPOUND: Cc1ncn2cc(-c3ccc(Cl)cc3Cl)[nH]c(=O)c12
RECORDED VALUE: inactive
--
COMPOUND: COCCCNC(=S)N1CCN(c2nc(-c3cccc(OC)c3)cs2)CC1
RECORDED VALUE: inactive
--
COMPOUND: Cc1cc(O)c(C(=O)/C=C/c2c(F)c(F)c(F)c(F)c2F)c(=O)o1
RECORDED VALUE: 11.2 µM (active)
--
COMPOUND: COc1ccc(NC(=O)c2sccc2SCC#N)cc1
RECORDED VALUE: 4.47 µM (active)
--
COMPOUND: Cc1ccc(N=Cc2c(O)cc(C)oc2=O)c(C)c1
RECORDED VALUE: inactive
--
COMPOUND: COc1ccc(NC(=O)CSc2nc(C)cs2)cc1
RECORDED VALUE: inactive
--
COMPOUND: Cn1c2c(c(=O)n(C)c1=O)C(c1cccc([N+](=O)[O-])c1)Nc1ccccc1O2 (stereo unspecified)
RECORDED VALUE: inactive
--
COMPOUND: CC(OC(=O)CCCOc1ccccc1)C(=O)Nc1ccc(Cl)cn1 (stereo unspecified)
RECORDED VALUE: inactive
--
COMPOUND: COc1ccc(NC(=O)c2ccc(C#CC(C)(C)O)cc2)cc1
RECORDED VALUE: inactive
--
COMPOUND: O=C(COC(=O)c1cc(=O)[nH]c2ccccc12)Nc1nc(-c2cccc(Br)c2)cs1
RECORDED VALUE: 14.1 µM (active)
